Each recorded value in this set is attributed to patent US20190092852A1.

Target Desc: T1, human IL-33 (R&D Systems, #3625-IL-010/CF) (human) (UniProt O95760)
T1 sequence (looked up): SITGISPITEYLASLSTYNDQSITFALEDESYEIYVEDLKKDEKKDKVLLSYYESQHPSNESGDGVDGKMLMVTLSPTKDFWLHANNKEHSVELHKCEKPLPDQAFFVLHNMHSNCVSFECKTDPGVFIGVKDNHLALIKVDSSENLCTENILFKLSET
Method Notes: SPR Biacore T200, 37 C
pKd: −log10 of the molar value.
# maps each entry to its pKd

Binder	pKd
H4H9667P (antibody, from another filing, IgG4, V domains shown) VH: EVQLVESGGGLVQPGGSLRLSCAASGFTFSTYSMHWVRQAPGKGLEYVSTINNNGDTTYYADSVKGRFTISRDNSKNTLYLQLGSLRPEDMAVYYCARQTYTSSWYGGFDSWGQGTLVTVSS VL: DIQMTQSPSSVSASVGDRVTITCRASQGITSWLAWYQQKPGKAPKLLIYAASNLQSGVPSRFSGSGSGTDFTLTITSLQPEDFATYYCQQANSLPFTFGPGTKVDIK	9.39
H4H9676P (antibody, from another filing, IgG4, V domains shown) VH: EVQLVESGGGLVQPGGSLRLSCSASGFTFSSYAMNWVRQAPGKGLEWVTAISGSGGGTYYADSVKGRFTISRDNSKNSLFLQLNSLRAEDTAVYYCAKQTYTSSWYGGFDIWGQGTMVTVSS VL: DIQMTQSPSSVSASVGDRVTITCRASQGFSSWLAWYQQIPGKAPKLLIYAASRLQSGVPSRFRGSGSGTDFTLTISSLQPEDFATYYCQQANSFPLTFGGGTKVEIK	9.34
H4H9664P (antibody, from another filing, IgG4, V domains shown) VH: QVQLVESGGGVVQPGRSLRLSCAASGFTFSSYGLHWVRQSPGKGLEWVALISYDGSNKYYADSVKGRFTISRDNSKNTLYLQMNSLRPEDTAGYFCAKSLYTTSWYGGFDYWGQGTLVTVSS VL: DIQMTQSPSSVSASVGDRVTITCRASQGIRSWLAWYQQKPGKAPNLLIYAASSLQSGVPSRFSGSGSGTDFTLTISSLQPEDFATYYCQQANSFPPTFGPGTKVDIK	9.17
